Entries and their measured ECHCG herbicidal rating follow.
- System: ECHOG Barnyardgrass
- experiment.description: Preemergence herbicidal evaluation, ECHOG
- Format: in vivo, Echinochloa crus-galli, (L.) Beau
- Design: scale not given here
- test.context: preemergence, rate 0.016 kg/ha
measured.endpoint: ECHCG herbicidal rating

compound=COc1ccc(-n2nnc3cc(F)c(-n4c(=O)cc(C(F)(F)F)n(C)c4=O)cc32)cc1 assayed_system="ECHOG Barnyardgrass" numeric_value=1.0
compound=C=CCOc1ccc(-n2nnc3cc(F)c(-n4c(=O)cc(C(F)(F)F)n(C)c4=O)cc32)c(C)c1 assayed_system="ECHOG Barnyardgrass" numeric_value=0.0
compound=COc1ccccc1-n1nnc2cc(F)c(-n3c(=O)cc(C(F)(F)F)n(C)c3=O)cc21 assayed_system="ECHOG Barnyardgrass" numeric_value=9.0
compound=COc1ccc(-n2nnc3cc(F)c(-n4c(=O)cc(C(F)(F)F)n(C)c4=O)cc32)c(C)c1 assayed_system="ECHOG Barnyardgrass" numeric_value=0.0
compound=COc1ccc(C)cc1-n1nnc2cc(F)c(-n3c(=O)cc(C(F)(F)F)n(C)c3=O)cc21 assayed_system="ECHOG Barnyardgrass" numeric_value=6.0
compound=COC(=O)COc1ccc(C)c(-n2nnc3cc(F)c(-n4c(=O)cc(C(F)(F)F)n(C)c4=O)cc32)c1 assayed_system="ECHOG Barnyardgrass" numeric_value=0.0
compound=COc1ccc(C)c(-n2nnc3cc(F)c(-n4c(=O)cc(C(F)(F)F)n(C)c4=O)cc32)c1 assayed_system="ECHOG Barnyardgrass" numeric_value=0.0
compound=Cc1ccc(-n2nnc3cc(F)c(-n4c(=O)cc(C(F)(F)F)n(C)c4=O)cc32)cc1 assayed_system="ECHOG Barnyardgrass" numeric_value=0.5

----------
- Tested on: AMBEL Ragweed, Common
- experiment.description: Preemergence herbicidal evaluation, AMBEL
- Assay type: in vivo, Ambrosia artemisifolia, L.
- Set-up: scale not given here
- test.context: preemergence, rate 0.125 kg/ha
Classify as follows. Reported AMBEL herbicidal rating greater than or equal to 7: TRUE. Reported AMBEL herbicidal rating below: FALSE.

compound="C=CCOc1ccc(-n2nnc3cc(F)c(-n4c(=O)cc(C(F)(F)F)n(C)c4=O)cc32)c(C)c1 [Example 43]" cat=FALSE
compound="CCc1ccc(-n2nnc3cc(F)c(-n4c(=O)cc(C(F)(F)F)n(C)c4=O)cc32)cc1 [Example 17]" cat=TRUE
compound="Cc1ccc(O)cc1-n1nnc2cc(F)c(-n3c(=O)cc(C(F)(F)F)n(C)c3=O)cc21 [Example 32]" cat=FALSE
compound="CC(C)c1ccc(-n2nnc3cc(F)c(-n4c(=O)cc(C(F)(F)F)n(C)c4=O)cc32)cc1 [Example 21]" cat=TRUE
compound="Cc1ccc(-n2nnc3cc(F)c(-n4c(=O)cc(C(F)(F)F)n(C)c4=O)cc32)cc1C [Example 23]" cat=FALSE
compound="Cc1ccccc1-n1nnc2cc(F)c(-n3c(=O)cc(C(F)(F)F)n(C)c3=O)cc21 [Example 20]" cat=FALSE
compound="COC(=O)COc1ccccc1-n1nnc2cc(F)c(-n3c(=O)cc(C(F)(F)F)n(C)c3=O)cc21 [Example 35]" cat=FALSE

----------
- System: GLXMAW Soybean, Williams
- experiment.description: Postemergence herbicidal evaluation, GLXMAW
- Type: in vivo, Glycine max, (L.) Merr. cv Williams
- Set-up: scale not given here
- test.context: 0.016 kg/ha, postemergence spray, rated about two-three weeks after treatment
Overview of reported Postemergence herbicidal rating GLXMAW across a group of compounds:
measured.endpoint: Postemergence herbicidal rating GLXMAW

compound=CCc1cccc(-n2nnc3cc(F)c(-n4c(=O)cc(C(F)(F)F)n(C)c4=O)cc32)c1 assayed_system="GLXMAW Soybean, Williams" numeric_value=6.5
compound=Cc1ccc(-n2nnc3cc(F)c(-n4c(=O)cc(C(F)(F)F)n(C)c4=O)cc32)cc1 assayed_system="GLXMAW Soybean, Williams" numeric_value=5.5
compound=COCc1ccccc1-n1nnc2cc(F)c(-n3c(=O)cc(C(F)(F)F)n(C)c3=O)cc21 assayed_system="GLXMAW Soybean, Williams" numeric_value=5.0
compound=C=CCOc1ccc(C)cc1-n1nnc2cc(F)c(-n3c(=O)cc(C(F)(F)F)n(C)c3=O)cc21 assayed_system="GLXMAW Soybean, Williams" numeric_value=5.5
compound=Cc1ccc(-n2nnc3cc(F)c(-n4c(=O)cc(C(F)(F)F)n(C)c4=O)cc32)cc1C assayed_system="GLXMAW Soybean, Williams" numeric_value=4.5
compound=COC(=O)COc1ccc(-n2nnc3cc(F)c(-n4c(=O)cc(C(F)(F)F)n(C)c4=O)cc32)c(C)c1 assayed_system="GLXMAW Soybean, Williams" numeric_value=3.5
compound=CCc1ccccc1-n1nnc2cc(F)c(-n3c(=O)cc(C(F)(F)F)n(C)c3=O)cc21 assayed_system="GLXMAW Soybean, Williams" numeric_value=4.5
compound=Cc1ccc(O)c(-n2nnc3cc(F)c(-n4c(=O)cc(C(F)(F)F)n(C)c4=O)cc32)c1 assayed_system="GLXMAW Soybean, Williams" numeric_value=3.5
